For each record, write down the corresponding minimal inhibitory concentration (MIC), SA 1199.
Test system: Staphylococcus aureus SA1199
Experiment: MIC, standard broth micro-dilution assay, SA 1199
Type: cell-based
Description: The antibacterial efficacy of the present compounds is illustrated by Table III. The minimal inhibitory concentrations (MICs) were determined using a standard broth micro-dilution assay.
Could you keep your reply to the number by itself?

Indicate its recorded minimal inhibitory concentration (MIC), SA 1199; the molecule in question is CC1OC(OC2C(Oc3c4cc5cc3Oc3ccc(cc3Cl)[C@@H](O)[C@@H](NC(=O)c3ccc(-c6ccccc6)cc3)C(=O)N[C@@H](CC(N)=O)C(=O)N[C@H]5C(=O)N[C@H]3C(=O)NC(C(=O)N[C@H](C(=O)O)c5cc(O)cc(O)c5-c5cc3ccc5O)[C@H](OC3CC(C)(N)C(O)C(C)O3)c3ccc(c(Cl)c3)O4)OC(CO)C(O)C2O)CC(C)(N)C1O (stereo partly drawn) [Example 1, N^1-(p-phenylbenzoyl)desleucylA82846B] 0.125

Indicate its recorded minimal inhibitory concentration (MIC), SA 1199; the molecule in question is CC1OC(OC2c3ccc(c(Cl)c3)Oc3cc4cc(c3OC3OC(CO)C(O)C(O)C3OC3CC(C)(NCc5ccc(-c6ccccc6)cc5)C(O)C(C)O3)Oc3ccc(cc3Cl)C(O)C(NC(=O)C3CCCN3)C(=O)NC(CC(N)=O)C(=O)NC4C(=O)NC3C(=O)NC2C(=O)NC(C(=O)O)c2cc(O)cc(O)c2-c2cc3ccc2O)CC(C)(N)C1O (stereo not drawn) [Example 32] 0.25

Indicate its recorded minimal inhibitory concentration (MIC), SA 1199; the molecule in question is CC(C)CC(NC(=O)OC(C)(C)C)C(=O)NC1C(=O)NC(CC(N)=O)C(=O)NC2C(=O)NC3C(=O)NC(C(=O)NC(C(=O)O)c4cc(O)cc(O)c4-c4cc3ccc4O)C(OC3CC(C)(N)C(O)C(C)O3)c3ccc(c(Cl)c3)Oc3cc2cc(c3OC2OC(CO)C(O)C(O)C2O)Oc2ccc(cc2Cl)C1O (stereo not drawn) 4

Indicate its recorded minimal inhibitory concentration (MIC), SA 1199; the molecule in question is CC1OC(OC2c3ccc(c(Cl)c3)Oc3cc4cc(c3OC3OC(CO)C(O)C(O)C3OC3CC(C)(NCc5ccc(-c6ccccc6)cc5)C(O)C(C)O3)Oc3ccc(cc3Cl)C(O)C(NC(=O)C(Cc3c[nH]c5ccccc35)NC(=O)OC(C)(C)C)C(=O)NC(CC(N)=O)C(=O)NC4C(=O)NC3C(=O)NC2C(=O)NC(C(=O)O)c2cc(O)cc(O)c2-c2cc3ccc2O)CC(C)(N)C1O (stereo not drawn) 1

Indicate its recorded minimal inhibitory concentration (MIC), SA 1199; the molecule in question is CC(C)CC(NC(=O)OC(C)(C)C)C(=O)NC1C(=O)NC(CC(N)=O)C(=O)NC2C(=O)NC3C(=O)NC(C(=O)NC(C(=O)O)c4cc(O)cc(O)c4-c4cc3ccc4O)C(OC3CC(C)(N)C(O)C(C)O3)c3ccc(c(Cl)c3)Oc3cc2cc(c3OC2OC(CO)C(O)C(O)C2OC2CC(C)(NCc3ccc(-c4ccccc4)cc3)C(O)C(C)O2)Oc2ccc(cc2Cl)C1O (stereo not drawn) [Example 11] 1

Indicate its recorded minimal inhibitory concentration (MIC), SA 1199; the molecule in question is CC1OC(OC2c3ccc(c(Cl)c3)Oc3cc4cc(c3OC3OC(CO)C(O)C(O)C3OC3CC(C)(NCc5ccc(-c6ccccc6)cc5)C(O)C(C)O3)Oc3ccc(cc3Cl)C(O)C(NC(=O)C(Cc3ccc(Cl)cc3)NC(=O)OC(C)(C)C)C(=O)NC(CC(N)=O)C(=O)NC4C(=O)NC3C(=O)NC2C(=O)NC(C(=O)O)c2cc(O)cc(O)c2-c2cc3ccc2O)CC(C)(N)C1O (stereo not drawn) [Example 28] 2
